Data origin, for the record: patent US20030212100A1

target-or-test-system: human PPARα receptor (Homo sapiens, UniProt Q07869)
Construct: expressed in transfected cells; host or cells: CV-1 cells (pSG5-based expression vector)
Sequence (Q07869 167-468): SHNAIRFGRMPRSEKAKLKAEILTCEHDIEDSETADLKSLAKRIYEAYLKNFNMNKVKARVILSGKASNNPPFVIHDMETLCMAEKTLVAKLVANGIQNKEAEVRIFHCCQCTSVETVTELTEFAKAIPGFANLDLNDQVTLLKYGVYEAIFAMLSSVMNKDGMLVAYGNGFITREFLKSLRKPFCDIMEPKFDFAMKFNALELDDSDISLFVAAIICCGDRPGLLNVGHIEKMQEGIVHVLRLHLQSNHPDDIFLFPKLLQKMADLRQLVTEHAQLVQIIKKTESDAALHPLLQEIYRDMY
method-notes: Luciferase reporter assay of PPARα agonist activity (Gal4-PPARα chimera receptor in CV-1 cells)
Assay type: cell-based
measurement-setup: CV-1, 10 μM compound, luciferase activity with 10 μM Wy-14,643 taken as 100, read-out: PPARα agonist activity, relative activity
parameter-measured: Emax at 10 µM (%)

compound | unit-abbrev | numeric-readout
CCOC(Cc1ccc(OCc2cnc3ccc(CC)cc3c2OC(C)C)cc1)C(=O)O (stereo not shown) | % | 74
CCOC(Cc1ccc(OCc2cnc3c(C(F)(F)F)cccc3c2OC(C)C)cc1)C(=O)O (stereo not shown) | % | 2.1
CCOC(=O)C(Cc1ccc(OCc2cnc3ccc(OC)cc3c2OC(C)C)cc1)OCC (stereo not shown) | % | 28.7
CCOC(Cc1ccc(OCc2cnc3c(F)cccc3c2OC(C)C)cc1)C(=O)O (stereo not shown) | % | 5
CCCCCCCCOc1c(COc2ccc(CC(OCC)C(=O)O)cc2)cnc2ccc(OC)cc12 (stereo not shown) | % | 64.4
CCOC(Cc1ccc(OCc2cnc3ccc(OC)cc3c2OC(C)C)cc1)C(N)=O (stereo not shown) | % | 8.5
CCOC(Cc1ccc(OCc2cnc3cc(OC)c(OC)cc3c2OC(C)C)cc1)C(=O)O (stereo not shown) | % | 1.5
CCOC(Cc1ccc(OCc2cnc3cc(C(F)(F)F)ccc3c2OC(C)C)cc1)C(=O)O (stereo not shown) | % | 6.4
CCOC(Cc1ccc(OCc2cnc3ccc(OC)cc3c2OC(C)C)cc1)C(=O)O (stereo not shown) | % | 24.6
CCCCNC(=O)C(Cc1ccc(OCc2cnc3ccc(OC)cc3c2OC(C)C)cc1)OCC (stereo not shown) | % | 0.3
COc1ccc2ncc(COc3ccc(CC(Sc4ccccc4)C(=O)O)cc3)c(OC(C)C)c2c1 (stereo not shown) | % | 0.6
CCOC(Cc1ccc(OCc2cccc3cccnc23)cc1)C(=O)O (stereo not shown) | % | 45.2
COc1ccc2ncc(COc3ccc(/C=C(\Sc4ccccc4)C(=O)O)cc3)c(OC(C)C)c2c1 | % | 0.3
CCOC(Cc1ccc(OCc2cc(OC)c3ccccc3n2)cc1)C(=O)O (stereo not shown) | % | 68.6
CCOC(Cc1ccc(OCc2cnc3cc(C)cc(C)c3c2OC(C)C)cc1)C(=O)O (stereo not shown) | % | 28.4
CCOC(Cc1ccc(OCc2cnc3c(Cl)cccc3c2OC(C)C)cc1)C(=O)O (stereo not shown) | % | 41.1
